# TARGET_OR_TEST_SYSTEM: DYRK1/DYRK1A (Homo sapiens, UniProt Q13627)
# Construct: purchased Reaction Biology Corp
# MEASUREMENT_PROTOCOL: DYRK1/DYRK1A IC50 assay (Reaction Biology Corp.)
# Type: biochemical
# MEASUREMENT_CONTEXT: DYRK1/DYRK1A assay from Reaction Biology Corp.
REPORTED_PROPERTY: IC50 (nM)

Worked set:
1. Cc1ncc(NCc2ccccc2)cc1-c1ccc2[nH]c(=O)[nH]c2c1 [Compound 74a]    2100
2. O=c1[nH]c2ccc(-c3cncc(NCc4ccccc4)c3)cc2n1-c1ccccn1 [Compound 61f]    0.52
3. O=c1[nH]c2ccc(-c3cc(NCc4ccccc4)c[n+]([O-])c3)cc2[nH]1 [Compound 69b]    45.2
4. COCCOc1cccc(-n2c(=O)[nH]c3ccc(-c4cncc(NCc5ccccc5)c4)cc32)c1 [Compound 61j]    3.47
5. N[C@@H](Cc1ccccc1)c1cncc(-c2ccc3[nH]c(=O)[nH]c3c2)c1 [Compound 65b]    23.2

A = O=c1[nH]c2ccc(-c3cncc(NCc4ccccc4)c3)cc2n1C1CC1 [Compound 61c]
B = CC(C)(C)OC(=O)NCCOc1cccc(-n2c(=O)[nH]c3ccc(-c4cncc(NCc5ccccc5)c4)cc32)c1 [Compound 611]
In: From the recorded data, which exceeds the other in IC50: A or B ? Response format: the label of the selected entry.
Out: B

====

# TARGET_OR_TEST_SYSTEM: DYRK1A (Homo sapiens, UniProt Q13627)
# Construct: purchased DiscoverX
# MEASUREMENT_PROTOCOL: KINOMEscan DYRK1A binding assay (DiscoverX), Kd determination
# MEASUREMENT_CONTEXT: eleven serial three fold dilutions, highest concentration 60 μM, several values in a cell = repeat determinations
REPORTED_PROPERTY: Kd (nM)

Some entries whose results are on file:
1) O=c1[nH]c2ccc(-c3cncc(NCCCc4ccccc4)c3)cc2[nH]1 [Compound 30p]    15
2) O=c1[nH]c2ccc(-c3cncc(NCc4ccc(Cl)cc4)c3)cc2[nH]1 [Compound 30e]    23

A = NC(=O)c1ccc(CNc2cncc(-c3ccc4[nH]c(=O)[nH]c4c3)c2)cc1 [Compound 33b]
B = Cc1ncc(-c2ccc3[nH]c(=O)[nH]c3c2)cc1NCc1ccccc1 [Compound 13c]
C = O=c1[nH]c2ccc(-c3cncc(NCc4ccccc4Cl)c3)cc2[nH]1 [Compound 30c]
In: Sort the molecules on Kd; start with the lowest figure. Submit the labels in the order that the ranking request calls for.
Out: C, A, B

====

# TARGET_OR_TEST_SYSTEM: DYRK1/DYRK1A (Homo sapiens, UniProt Q13627)
# Construct: purchased Reaction Biology Corp
# MEASUREMENT_PROTOCOL: DYRK1/DYRK1A IC50 assay (Reaction Biology Corp.)
# Format: biochemical
# MEASUREMENT_CONTEXT: DYRK1/DYRK1A assay from Reaction Biology Corp.
Structures can show the parent of a compound that is named as a salt.
REPORTED_PROPERTY: IC50 (nM)

Would you please look over these solved cases?
1. Cn1c(=O)[nH]c2ccc(-c3cncc(NCc4ccccc4Cl)c3)cc21 [Compound 30r]    0.1
2. CCn1c(=O)[nH]c2ccc(-c3cncc(NCc4ccccc4)c3)cc21 [Compound 61a]    1.41

I = O=c1[nH]c2ccc(-c3cncc(NCc4ccco4)c3)cc2[nH]1 [Compound 49a]
II = NCCOc1cccc(-n2c(=O)[nH]c3ccc(-c4cncc(NCc5ccccc5)c4)cc32)c1 [Compound 61n, hydrochloride]
In: Parameter check: reported IC50 is higher for which label, I or II ? Mark your answer with the label of the selected entry.
Out: II

====

# TARGET_OR_TEST_SYSTEM: DYRK1/DYRK1A (Homo sapiens)
# Construct: purchased Reaction Biology Corp
# MEASUREMENT_PROTOCOL: DYRK1/DYRK1A IC50 assay (Reaction Biology Corp.)
# Assay type: biochemical
# MEASUREMENT_CONTEXT: DYRK1/DYRK1A assay from Reaction Biology Corp.
REPORTED_PROPERTY: IC50 (nM)

1. COCCOc1ccc(-n2c(=O)[nH]c3ccc(-c4cncc(NCc5ccccc5)c4)cc32)cc1 [Compound 61k]    38

A = O=c1[nH]c2ccc(-c3cncc(NCc4ccccc4)c3)cc2n1-c1cccnc1 [Compound 61g]
B = COc1ccccc1NCc1cncc(-c2ccc3[nH]c(=O)[nH]c3c2)c1 [Compound 52g]
C = O=c1[nH]c2ccc(-c3cncc(NCc4cccs4)c3)cc2[nH]1 [Compound 49b]
In: Rank entries according to their IC50, from the largest number down. Kindly provide the labels arranged according to the requested ordering.
Out: A, B, C

P = O=c1[nH]c2ccc(-c3cncc(NCc4cc[nH]n4)c3)cc2[nH]1 [Compound 49e]
Q = CC(C)n1c(=O)[nH]c2ccc(-c3cncc(NCc4ccccc4)c3)cc21 [Compound 61b]
R = O=c1[nH]c2ccc(-c3ccncc3NCc3ccccc3)cc2[nH]1 [Compound 74b]
S = Cn1c(=O)[nH]c2ccc(-c3cc(NCc4ccccc4)c[n+]([O-])c3)cc21 [Compound 69a]
T = O=c1[nH]c2ccc(-c3cncc(CNc4ccccc4Cl)c3)cc2[nH]1 [Compound 52d]
In: Highest IC50 first, then in falling order down to the smallest. Could you list the labels in the order requested?
Out: R, S, Q, T, P
